# MEASUREMENT_NOTES: growth modulation of vineyard yeast isolate – strain RM11-1a, OD600, basal, 24 h, primary screen (AID 1177);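 further: cultures grown under basal conditions with no added stressor; test concentration not given here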
# COND: S. cerevisiae RM11-1a growth, OD600, 24 h; higher = more signal, called active from +8 up or from −8 down
Response key: True means z-score >= 0.6; False means z-score < 0.6.

// query State whether the measured z-score reaches 0.6, counting equality as reaching it, for CC(C)(C)N1CC=CC23O[C@@H]4C=CCCOC(=O)C4[C@H]2C(=O)N(CCCCCCO)[C@@H]3C1=O (stereo partly specified)
// result True

Further cases:
// query Textbook exercise: given the entry COC(=O)[C@@]1(Cc2ccccc2)[C@H]2c3cc(C(=O)N(C)C)n(Cc4ccc(S(C)(=O)=O)cc4)c3C[C@H]2CN1C(=O)c1ccccc1 , state whether its z-score is greater than or equal to 0.6.
// result True

// query Kindly determine if z-score recorded for NC(=O)NCC#Cc1ccc2c(c1)[C@]1(C(=O)N2)[C@H](c2ccc(OCCO)cc2)N2[C@H](c3ccccc3)[C@H](c3ccccc3)OC(=O)[C@H]2[C@@H]1C(=O)O is above or exactly 0.6.
// result False

// query Determine whether measured z-score meets or exceeds 0.6 for O=C1O[C@@H](c2ccccc2)[C@@H](c2ccccc2)N2[C@@H](c3ccc(OCCO)cc3)[C@]3(C(=O)Nc4ccc(C#CCCO)cc43)[C@@H](C(=O)O)[C@H]12
// result False

// query Record CC(C)C[C@@H]1NC(=O)[C@@]23C(=O)N[C@@H](Cc4ccccc4)C2[C@H](C)[C@@]2(C)O[C@H]2C3/C=C/C/C=C\CNC(=O)CNC1=O (stereo partly specified) ; criterion: z-score no lower than 0.6. Met?
// result False

// query Check this compound for z-score at or above 0.6: C=CCOC(=O)[C@@H]1[C@H]2C(=O)O[C@H](c3ccccc3)[C@H](c3ccccc3)N2[C@H](c2ccc(OCCOC(=O)[C@H]3C[C@H]4C(=O)N[C@@H](CCCCN(C)C)C(=O)N4[C@H]3c3ccc(O)cc3)cc2)[C@@]12C(=O)Nc1ccc(I)cc12
// result True
